Test system: A673/TR/shEF
experiment-notes: cell viability (LOESS-normalised, relative to median of negative controls) (log2 ratio); higher = more viable cells (less compound effect), active = hit call of the paper (over 3 MAD below the median)
assay-setup: 2.5 µM; library screen: screen2; EWS-FLI1 expression: high (no doxycycline); treatment time: 72 h
About 300 (9.4%) of roughly 3,200 compounds showed activity. The entries come from a sample that favours actives as a whole.
Form entry, call: pick from active, inactive

# molecule, assigned-class
measured = [
    ("O=C(O)[C@@H]1CCN1", "inactive"),
    ("O=P1(N(CCCl)CCCl)NCCCO1 (configuration not stated)", "inactive"),
    ("CC1O[C@H](O[C@H]2C[C@@H](O)[C@]3(CO)C4C(O)C[C@]5(C)C(C6COC(=O)C6)CC[C@]5(O)C4CC[C@]3(O)C2)C(O)C(O)[C@H]1O (some centres not stated)", "inactive"),
    ("N[C@@]1(C(=O)O)CC[C@@H](C(=O)O)C1", "inactive"),
    ("NCCc1ccc(O)cc1", "inactive"),
    ("C[C@@H]1c2cc(O)c(O)cc2CCN1C", "inactive"),
]

### Prompt # fetch the recorded call for "COc1cc(C[C@@H](C)N)c(OC)cc1I" here
### Response inactive

### Prompt One more molecule: "c1ccc2c(c1)[I+]c1ccccc1-2"
### Response active

----------
System: A673/TR/shEF
experiment-notes: cell viability (LOESS-normalised, relative to median of negative controls) (log2 ratio); higher = more viable cells (less compound effect), active = hit call of the paper (over 3 MAD below the median)
assay-setup: 25 µM; library screen: screen3; EWS-FLI1 expression: low (doxycycline-induced shRNA knockdown); treatment time: 72 h
Hit rate of the full screen: of about 3,200 compounds, about 300 (9.4%) showed activity. The full list was thinned out, with actives kept by preference.
measure-name: cell viability (log2)
// return just the number, without any unit appended

// known answers, use as guide
# molecule, target-entity, measured-result
measured = [
    ("COP(=S)(OC)SCn1nnc2ccccc2c1=O", "A673/TR/shEF", 0.00265),
    ("CC1=C2C[C@H]3[C@@H](CC=C4C[C@@H](O)CC[C@@]43C)[C@@H]2CC[C@]12O[C@@H]1C[C@H](C)CN[C@H]1[C@H]2C", "A673/TR/shEF", 0.053),
]

Would you kindly look at the next entry?
### Prompt Lab request: please report cell viability (log2) under test system A673/TR/shEF for C[C@@H]1[C@H](O)[C@@H](C)/C=C/C=C/CC/C=C/C=C/C=C/C=C/C(O[C@H]2O[C@H](C)[C@@H](O)[C@H](N)[C@@H]2O)CC2O[C@](O)(CC(O)C(O)CCC(O)CC(O)CC(O)CC(=O)O[C@H]1C)CC(O)C2C(=O)O (stereo partly drawn)
### Response 0.0194

----------
System: A673/TR/shEF
experiment-notes: cell viability (LOESS-normalised, relative to median of negative controls) (log2 ratio); higher = more viable cells (less compound effect), active = hit call of the paper (over 3 MAD below the median)
assay-setup: 0.25 µM; library screen: screen1; EWS-FLI1 expression: low (doxycycline-induced shRNA knockdown); treatment time: 72 h
Out of some 3,200 compounds screened, about 300 (9.4%) showed activity. The sample holds actives, similar compounds and a random draw of the others, so the mix is not that of the screen.
Label key: met means cell viability (log2) under 0.06; not met means cell viability (log2) of 0.06 or more.

# compound, assigned-class
data = [
    ("C[C@@H]1O[C@@H](O[C@H]2C[C@@H](O)[C@]3(CO)[C@H]4[C@H](O)C[C@]5(C)[C@@H](C6=CC(=O)OC6)CC[C@]5(O)[C@@H]4CC[C@]3(O)C2)[C@H](O)[C@H](O)[C@H]1O", "met"),
]

# next compound below
### Prompt Lab log: compare recorded cell viability (log2) with 0.06; is it strictly lower for "C[C@@H]1O[C@@H](O[C@H]2CC[C@]3(C=O)[C@H]4CC[C@]5(C)[C@@H](C6=CC(=O)OC6)CC[C@]5(O)[C@@H]4CC[C@]3(O)C2)[C@H](O)[C@H](O)[C@H]1O" ?
### Response met
